Origin of measurements: paper PMC7619385

Target: LmxCLK1 (Leishmania mexicana)
Sequence (E9AMP2 1-422): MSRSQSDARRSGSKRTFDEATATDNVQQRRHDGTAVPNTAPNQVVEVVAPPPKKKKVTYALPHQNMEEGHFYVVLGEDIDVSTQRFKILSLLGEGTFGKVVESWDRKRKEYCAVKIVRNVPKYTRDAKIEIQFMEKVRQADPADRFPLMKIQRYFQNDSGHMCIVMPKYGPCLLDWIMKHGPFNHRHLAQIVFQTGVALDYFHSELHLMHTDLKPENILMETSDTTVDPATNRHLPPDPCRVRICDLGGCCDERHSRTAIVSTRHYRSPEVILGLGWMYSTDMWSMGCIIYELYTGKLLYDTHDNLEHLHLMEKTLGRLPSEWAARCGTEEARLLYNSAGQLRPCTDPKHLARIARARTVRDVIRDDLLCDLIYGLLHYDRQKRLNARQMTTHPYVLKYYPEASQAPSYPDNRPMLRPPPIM
Assay: biochemical
Type: binding
Conditions: DSF, 10 µM compound, 2 µM LmxCLK1, Run 2
Can you tell me ΔTm Run 2 for the items I'm about to list?
Answers are plain numbers, in °C.

// below: answered molecules
Molecule	Measured target	Measured result
COc1ccc2c(Oc3ccc(NC(=O)c4c(C)n(CC(C)(C)O)n(-c5ccccc5)c4=O)nc3)ccnc2c1	LmxCLK1 (Leishmania mexicana)	1.0
COc1ncc(-c2ccc3nccc(-c4ccnnc4)c3c2)cc1NS(=O)(=O)c1ccc(F)cc1F	LmxCLK1 (Leishmania mexicana)	-0.3
NC1(Cc2ccc(Cl)cc2)CCN(c2ncnc3[nH]ccc23)CC1	LmxCLK1 (Leishmania mexicana)	0.6
N[C@@H]1CCCN(c2c(/C=C3\SC(=O)NC3=O)cccc2-c2ccccc2)C1	LmxCLK1 (Leishmania mexicana)	-0.4

Hi! Can you tell me ΔTm Run 2 for each of these molecules?
1. CCN(CCO)CCCOc1ccc2c(Nc3cc(CC(=O)Nc4cccc(F)c4)[nH]n3)ncnc2c1
2. CNC(=O)c1ccccc1Nc1nc(Nc2ccc(N3CCOCC3)cc2OC)ncc1Cl
3. O=C(Nc1cccc(Nc2ncc(Br)c(NCCc3cnc[nH]3)n2)c1)N1CCCC1
4. C=CC(=O)Nc1ccc2ncnc(Nc3cccc(Br)c3)c2c1

1. -0.1
2. -0.1
3. 0.2
4. -0.7

Hi! Can you tell me ΔTm Run 2 for each of these molecules?
1. C#Cc1cccc(Nc2ncnc3cc(OCCOC)c(OCCO)cc23)c1
2. CS(=O)(=O)CCNCc1ccc(-c2ccc3ncnc(Nc4ccc(OCc5cccc(F)c5)c(Cl)c4)c3c2)o1.Cc1ccc(S(=O)(=O)O)cc1.Cc1ccc(S(=O)(=O)O)cc1 [Lapatinib (GW-572016) Ditosylate]
3. COc1cc(Nc2ncc(F)c(Nc3ccc4c(n3)NC(=O)C(C)(C)O4)n2)cc(OC)c1OC [R406 (free base)]
4. Cc1ccc(NC(=O)c2ccc(CN3CCN(C)CC3)cc2)cc1Nc1nc(-c2cccnc2)cs1

[0.1, 0.0, 0.0, 0.2]

---

Target: LmxCLK1 (Leishmania mexicana)
Experiment: biochemical
Assay type: binding
Details: DSF, 10 µM compound, 2 µM LmxCLK1, mean of two runs
Can you tell me ΔTm Average for the items I'm about to list?
Give bare numbers, in °C.

Compound	Measured target	Unit annotation	ΔTm Average
CS(=O)(=O)c1cccc(CNc2nc(Nc3ccc4c(c3)CCC(=O)N4)ncc2C(F)(F)F)c1 [PF-573228]	LmxCLK1 (Leishmania mexicana)	°C	-0.1

Hi! Can you tell me ΔTm Average for each of these compounds?
1. O=C(NOCC1CC1)c1ccc(F)c(F)c1Nc1ccc(I)cc1Cl [PD184352 (CI-1040)]
2. Cc1cc(N2CCOCC2)cc2[nH]c(-c3c(NC[C@@H](O)c4cccc(Cl)c4)cc[nH]c3=O)nc12 [BMS-536924]
3. COc1ncccc1-c1cnn2ccc(N3CCN(C(=O)OC(C)C)CC3)nc12 [LP-935509 (AAK1)]

1: 0.1; 2: 0.1; 3: -0.3

---

Can you tell me Target occupancy Run 2 for the items I'm about to list?
Target: NLuc::LmxCLK1 (Leishmania mexicana, UniProt E9AMP2)
Sequence (E9AMP2 entry or part of it): as the sequence (E9AMP2 1-422) above
Experiment: cell-based
Assay type: cell-based
Settings: 10 µM compound, tracer SV366, promastigotes
One number for each entry, in %.

// below: answered compounds
Compound	Value kind	Unit annotation	Measured result
NC(=O)Nc1sc(-c2ccc(F)cc2)cc1C(N)=O [TPCA-1]	Target occupancy Run 2	%	-7.6
O=c1cc(-c2cccc3c2Sc2ccccc2S3)oc(N2CCOCC2)c1 [KU-55933 (ATM Kinase Inhibitor)]	Target occupancy Run 2	%	-21.9
COc1ccc(-c2cc3c(C)nc(N)nc3n([C@H]3CC[C@H](OCCO)CC3)c2=O)cn1 [PF-04691502]	Target occupancy Run 2	%	-25.8
CC(C)(C)n1nc(-c2ccc(Cl)cc2)c2c(N)ncnc21 [PP2]	Target occupancy Run 2	%	0.5

Hi! Can you tell me Target occupancy Run 2 for each of these compounds?
1. c1cncc(CN2CCC(n3ncc4c(N5CCOCC5)nc(-c5ccc6[nH]ccc6c5)nc43)CC2)c1 [WAY-600]
2. CN1CC[C@H](c2c(O)cc(O)c3c(=O)cc(-c4ccccc4Cl)oc23)[C@H](O)C1.Cl [Flavopiridol HCl]
3. CN1CCCN(C(=O)c2cccc(-c3ccc(/C=C4/C(=O)Nc5ccc(Cl)cc54)o3)c2)CC1.Cl [CX-6258 HCl]
4. CN(C)CCCn1cc(C2=C(c3c[nH]c4ccccc34)C(=O)NC2=O)c2ccccc21 [GF109203X]
5. C#Cc1cccc(Nc2ncnc3cc(OCCOC)c(OCCO)cc23)c1 [OSI-420]
6. COc1cccc(-c2cc(=O)c3ccccc3o2)c1N [PD98059]
7. Cl.O=S(=O)(c1cccc2cnccc12)N1CCCNCC1 [Fasudil (HA-1077) HCl]
8. CC(C)N(CCC(=O)c1ccc2ccccc2c1)Cc1ccccc1.Cl [ZM 39923 HCl]

1. -10.8
2. -3.3
3. -26.8
4. -5.0
5. 3.7
6. -0.7
7. -10.2
8. -18.8

Hi! Can you tell me Target occupancy Run 2 for each of these compounds?
1. CNC(=O)c1cc(Oc2ccc(NC(=O)Nc3ccc(Cl)c(C(F)(F)F)c3)c(F)c2)ccn1 [Regorafenib (BAY 73-4506)]
2. Cc1ccccc1CN1C(=O)C2=C(CCN(Cc3ccccc3)C2)N2CCN=C12 [TIC10]
3. O=C(O)[C@]1(Cc2cccc(Nc3nccs3)n2)CC[C@@H](Oc2cccc(Cl)c2F)CC1 [MK-5108 (VX-689)]

-5.3
-6.1
1.0

Hi! Can you tell me Target occupancy Run 2 for each of these compounds?
1. CC[C@H](Nc1ncnc2[nH]cnc12)c1nc2cccc(F)c2c(=O)n1-c1ccccc1 [CAL-101 (Idelalisib)]
2. Cn1cc(C2=C(c3cn(C4CCN(Cc5ccccn5)CC4)c4ccccc34)C(=O)NC2=O)c2ccccc21 [Enzastaurin (LY317615)]
3. C#Cc1cccc(Nc2ncnc3cc(OCCOC)c(OCCOC)cc23)c1.Cl [Erlotinib HCl (OSI-744)]
4. COc1ccc(Cl)cc1NC(=O)Nc1cc(C)nc2ccccc12 [PQ 401]

0.1
-1.9
-7.3
1.2
